# Read-out: Cytochrome P450 (CYP1A1), CYP1A1 (gene 1543)
# Method Notes: LTEA_HepaRG_CYP1A1: Life Technologies and Expression Analysis (LTEA) Assay for Cytochrome P450 (CYP1A1) using HepaRG (AID 2283454)
# Experimental Setup: mRNA level, 48 h; actives raise or lower the signal
The source made the active and inactive calls. The calls were made as follows: active = hit-call score of the fitted dose curve at least 0.9, where 1 is the maximum; inactive = score below 0.9.
Your answer must be one of the following: true (1) for active, false (0) for inactive

The following molecules have reported results that may help.
>>> class_label("CC1(C)NC(=O)NC1=O")
"false (0)"
>>> class_label("CCCCCCCCCCC")
"true (1)"
>>> class_label("Cc1ccccc1Cl")
"true (1)"
>>> class_label("CC(=O)OCCOCCOCCOC(C)=O")
"false (0)"
>>> class_label("CCCCOC(=O)CCCCCCCCC(=O)OCCCC")
"false (0)"
>>> class_label("Cc1cccc(C)c1O")
"true (1)"
>>> class_label("COc1ccc(S(=O)(=O)N2C(=O)[C@@](c3ccccc3OC)(N3C[C@H](O)C[C@H]3C(=O)N(C)C)c3cc(Cl)ccc32)c(OC)c1")
"false (0)"
>>> class_label("CCCCCCOCCO")
"true (1)"

Request: Lab log entry: `Cc1ccc(C)c(O)c1C` — outcome as called in the assay?
Response: true (1)

----------
# Method Notes: Tanguay_ZF_120hpf_NC_legacy: (Legacy) Oregon State University Tanguay Lab 120 Hour Post-fertilization zebrafish Assay for Notochord and Tail Malformation (AID 2283656)
Records with an inconclusive call do not appear. The source made the active and inactive calls. The calls were made as follows: active = hit-call score of the fitted dose curve at least 0.9, where 1 is the maximum; inconclusive = response in the unintended direction; inactive = score below 0.9.
Measured Endpoint: outcome

Completed entries (count: 8):
>>> measured_result("CN1CCCC1=O")
"inactive"
>>> measured_result("CCCCOC(=O)CCCCCCCCC(=O)OCCCC")
"inactive"
>>> measured_result("CC(=O)OC/C=C(\\C)CCC=C(C)C")
"inactive"
>>> measured_result("Cc1nc(C)nc(N2C[C@@H](C)N(c3ccnc([C@@H](C)O)n3)[C@@H](C)C2)n1")
"inactive"
>>> measured_result("CCOC(=O)CCC(=O)OCC")
"inactive"
>>> measured_result("Cc1nc(-c2ccc3c(c2)CCN(CCC2CCC(NC(=O)/C=C/c4ccc(F)cc4)CC2)CC3)no1 (centres undefined)")
"inactive"
>>> measured_result("CCCCCCCCCCCCCCCC")
"inactive"
>>> measured_result("OC[C@@H](O)[C@@H](O)[C@H](O)[C@H](O)CO")
"inactive"

Give outcome for all compounds that follow.
1. CCOC(=O)C(C)(C)Oc1ccc(Cl)cc1
2. O=c1[nH]cc(F)c(=O)[nH]1
3. NCC1(Cc2noc(=O)[nH]2)CCCCC1

Response:
1. inactive
2. inactive
3. inactive

Need outcome for each of these compounds.
1. CCCCCC(=O)O
2. O=C(O)CCCCC(=O)O
3. CCCCCCCCCCC

Response:
1: inactive; 2: inactive; 3: inactive

----------
# Method Notes: APR_HepG2_NuclearSize_24hr: Apredica 24-hour HepG2 Assay for Nuclear Size (AID 2282907)
# Experimental Setup: high-content imaging, actives raise or lower the signal
Active and inactive are the calls of the source. How the source made its calls: active means hit-call score of the fitted dose curve at least 0.9, where 1 is the maximum; inactive means score below 0.9.
Measured Endpoint: outcome

Past entries and their recorded results:
>>> measured_result("CC(=O)C(C)=CC1C(C)=CCCC1(C)C (configuration not stated)")
"inactive"
>>> measured_result("CCCCN(CCCC)CCCC")
"inactive"
>>> measured_result("O=C(O)CCCCC(=O)O")
"inactive"
>>> measured_result("CCCCCCCCCCCCCCCCCC(=O)O")
"inactive"
>>> measured_result("CCCCCC(=O)O")
"inactive"
>>> measured_result("CCOc1ccc2c(c1)C(C)=CC(C)(C)N2")
"inactive"
>>> measured_result("Cc1cccc(C)c1O")
"inactive"
>>> measured_result("CC(=O)OCCOCCOCCOC(C)=O")
"inactive"
>>> measured_result("Cc1c(C(=O)O)c(O)cc2c1C(=O)c1c(O)c([C@@H]3O[C@H](CO)[C@@H](O)[C@H](O)[C@H]3O)c(O)c(O)c1C2=O")
"inactive"
>>> measured_result("COc1cc(/C=C/C(=O)CC(=O)/C=C/c2ccc(O)c(OC)c2)ccc1O")
"inactive"

Hi! Can you tell me outcome for each of these compounds?
1. O=C(OCCCCCOC(=O)c1ccccc1)c1ccccc1
2. Cc1cc(=O)[nH]c(=S)[nH]1

Response:
inactive
inactive
